Test system: NCI-H460
Measurement Protocol: NCI tumour cell line growth inhibition, 48 h
Active and inactive are the calls of the source. No stated cut-off is given here; in the data, active = GI50 up to about 1.1 µM and inactive = higher.
Labels: active, inactive

- Compound: "c1c2c(cc3c1OCO3)-c1cc3ccc4c(c3c[n+]1CC2)OCO4 [COPTISINE CHLORIDE]"
  Category Label: "active"
- Compound: "CC1NOC(=O)C1/N=N/c1ccc(Cl)cc1Cl (stereo unspecified)"
  Category Label: "inactive"
- Compound: "CCCCCCCCCCOc1ccc(/N=N/c2nnc(-c3ccc(OCCCCC)cc3)s2)cc1"
  Category Label: "inactive"
- Compound: "O=c1[nH]c(=O)n(C2OC(CO)C(O)C2O)cc1OCc1ccccc1 (stereo unspecified)"
  Category Label: "inactive"
- Compound: "Cc1c2c(C#N)nccc2c(C)c2c1c1ccccc1n2Cc1ccccc1"
  Category Label: "inactive"
- Compound: "CCCCCCCCC(O)C#CC(N)=O (stereo unspecified)"
  Category Label: "inactive"

----------
Recorded GI50, one value per entry.
Test system: SK-MEL-2
Measurement Protocol: NCI tumour cell line growth inhibition, 48 h
Active and inactive are the calls of the source. No stated cut-off is given here; in the data, active = GI50 up to about 1.1 µM and inactive = higher. Where a SMILES comes first, the peptide text is derived from it. [ ]: non-standard residue; d: D form. The star is where a group is joined. Cbz = O=C(OCc1ccccc1)*; Aib = CC(C)(N)C(=O)O; OBn = c1ccc(CO*)cc1

- Molecule: "CSc1nc(C)c(Br)c(=O)n1C1OC(COC(C)=O)C(OC(C)=O)C(OC(C)=O)C1OC(C)=O (stereo not given)"
  GI50: "56.5 µM (inactive)"
- Molecule: "CCOC(=O)/C=C(\\N=P(c1ccccc1)(c1ccccc1)c1ccccc1)C(F)(F)C(F)(F)C(F)(F)C(F)(F)C(F)(F)F"
  GI50: "> 100 µM (inactive)"
- Molecule: "CCOC(=O)C(C(=O)OCC)=C1C=C(c2ccccc2)c2ccccc21"
  GI50: "> 100 µM (inactive)"
- Molecule: "O=c1c2cc([N+](=O)[O-])cnc2sn1-c1ccc(Br)cc1"
  GI50: "32.7 µM (inactive)"
- Molecule: "CN(C)CC1CC/C(=C\\c2ccc(Cl)c(Cl)c2)C1=O (stereo not given)"
  GI50: "> 45.1 µM (inactive)"
- Molecule: "c1ccc2c(c1)c1c(n2CCOCCN2CCCCC2)CCCC1"
  GI50: "8.77 µM (inactive)"
- Molecule: "CC(C)(C)[Si](C)(C)OCC1CCC(n2cnc3c(NC(=O)c4ccccc4)ncnc32)O1 (stereo not given)"
  GI50: "19 µM (inactive)"
- Molecule: "CC(C)(C)c1cc(Oc2ccc(C#N)c(C#N)c2)cc(C(C)(C)C)c1"
  GI50: "> 100 µM (inactive)"
- Molecule: "O=C1Nc2cc(Cl)ccc2N=CC1NC(=O)C(c1ccccc1)c1ccccc1Cl (stereo not given)"
  GI50: "> 100 µM (inactive)"
- Molecule: "COc1ccc(N2C(=O)C3c4[nH]c5ccc(OC)cc5c4C4CCC(c5ccccc5)CC4C3C2=O)cc1 (stereo not given)"
  GI50: "20.3 µM (inactive)"
- Molecule: "CCOC(=O)NC(Nc1c(F)c(F)c(F)c(F)c1F)(C(F)(F)F)C(F)(F)F"
  GI50: "> 100 µM (inactive)"
- Molecule: "C=C1CN(C2=NCCO2)C1"
  GI50: "> 100 µM (inactive)"
- Molecule: "Clc1ccc(-c2nn3c(COc4ccc(OCc5nnc6sc(-c7ccc(Cl)cc7)nn56)c(Cl)c4)nnc3s2)cc1"
  GI50: "53.3 µM (inactive)"
- Molecule: "COc1c(C)c(OC)c(C(=O)CC(C)C)c(OC)c1C"
  GI50: "> 100 µM (inactive)"
- Molecule: "N/N=C(\\CC1OC(=O)c2ccccc21)c1ccco1 (stereo not given)"
  GI50: "> 100 µM (inactive)"
- Molecule: "O=c1c2cccc3cccc(c4oc5c6cccc7cccc(c(=O)c5c14)c76)c32"
  GI50: "15.7 µM (inactive)"
- Molecule: "CCOC(=O)COS(=O)(=O)C(F)(F)F"
  GI50: "> 100 µM (inactive)"
- Molecule: "O=C1NC2(CCCCCC2)C2CCCCCCC12O (stereo not given)"
  GI50: "> 100 µM (inactive)"
- Molecule: "CC(NC(=O)C(C)(C)NC(=O)C(CC(=O)OCc1ccccc1)NC(=O)OCc1ccccc1)C(N)=O (stereo not given) (Cbz-Asp(OBn)-[Aib]-Ala-NH2; configuration not given here)"
  GI50: "> 100 µM (inactive)"
- Molecule: "Cc1ccc(-c2cc(=O)c3cc(C)c(C)c(C(=O)O)c3o2)cc1N"
  GI50: "> 100 µM (inactive)"

----------
Test system: COLO 205
Measurement Protocol: NCI tumour cell line growth inhibition, 48 h
Active and inactive are the calls of the source. Cut-off read from the data, not from the text of the source: active = GI50 up to about 1.1 µM and inactive = higher.
Labels: active, inactive

- Compound: "CC(=O)NC1C(OCc2ccccc2)OC(CO)C(O)C1OCC(=O)N[C@@H](C)C(=O)N[C@H](CCC(=O)NCCCCNc1c2ccccc2nc2cccc([N+](=O)[O-])c12)C(N)=O (stereo not given in full)"
  Category Label: "active"
- Compound: "Cc1cccc(-c2nc(-c3cnccn3)n(Cc3ccccc3)n2)c1"
  Category Label: "inactive"
- Compound: "O=c1c2cccc3cccc(c4oc5c6cccc7cccc(c(=O)c5c14)c76)c32"
  Category Label: "inactive"
- Compound: "O=c1[nH]nc(Cc2ccccc2)n1/N=C/c1ccccc1Cl"
  Category Label: "inactive"
- Compound: "COc1cc2c3c(n(C)c(=O)c2cc1OC)-c1cc2c(cc1/C3=C\\CCCI)OCO2"
  Category Label: "inactive"
- Compound: "CN(C)S(=O)(=O)n1cnc(CO)c1"
  Category Label: "inactive"
- Compound: "O=C(c1ccc(Cl)cc1)C(O)c1ccc(Cl)cc1 (stereo not given)"
  Category Label: "inactive"
- Compound: "COC1/C=C/OC2(C)Oc3c(C)c(O)c4c(c3C2=O)C(=O)C=C(NC(=O)/C(C)=C\\C=C\\C(C)C(OC=O)C(C)C(O)C(C)C(OC(C)=O)C1C)C4=O (stereo not given)"
  Category Label: "inactive"
- Compound: "CC(=O)OC1C2CCC1C1C2C2(Cl)C(Cl)=C(Cl)C1(Cl)C2(Cl)Cl (stereo not given)"
  Category Label: "inactive"
- Compound: "O=C1OCCC1(Cc1ccc(Cl)cc1)Cc1ccc(Cl)cc1"
  Category Label: "inactive"

----------
Recorded GI50, one value per entry.
Test system: SK-OV-3
Measurement Protocol: NCI tumour cell line growth inhibition, 48 h
The source made the active and inactive calls. No stated cut-off is given here; in the data, active = GI50 up to about 1.1 µM and inactive = higher.

- Compound: "COc1ccc(N2C(=O)C3c4[nH]c5ccc(OC)cc5c4C4CCC(c5ccccc5)CC4C3C2=O)cc1 (stereo not given)"
  GI50: "12.2 µM (inactive)"
- Compound: "COc1ccc2c(c1OC)C(=O)O[C@@H]2[C@H]1c2cc3c(cc2CCN1C)OCO3"
  GI50: "> 100 µM (inactive)"
- Compound: "C/N=C/N(C)c1c2ccccc2nc2ccccc12"
  GI50: "> 100 µM (inactive)"
- Compound: "CC(=O)N1CCN(C23OC4(N5CCN(C(C)=O)CC5)C5C6CC(C7C6C4C72)C53)CC1 (stereo not given)"
  GI50: "> 100 µM (inactive)"
- Compound: "O=[N+]([O-])/C(C(Cl)=C(Cl)Cl)=C(\\N1CCCCC1)n1cncn1"
  GI50: "17.6 µM (inactive)"

----------
System: K562
Measurement Protocol: NCI tumour cell line growth inhibition, 48 h
Calls of active or inactive are those of the source. Cut-off read from the data, not from the text of the source: active = GI50 up to about 1.1 µM and inactive = higher. Where a SMILES comes first, the peptide text is derived from it. The star is where a group is joined. Boc = CC(C)(C)OC(=O)*; OSu = O=C1CCC(=O)N1O*
Labels: yes (1) for active, no (0) for inactive

- Compound: "N#CCCN(CCC#N)c1ccc(C(=N/c2ccc(F)cc2)/N=N/c2ccccc2)cc1"
  Category Label: "no (0)"
- Compound: "O=C(O)c1cc2cc(c1)/N=C/c1ccccc1OCc1cccc(n1)COc1ccccc1/C=N/2"
  Category Label: "no (0)"
- Compound: "CCCCCCCCCCCCCCCCNCCCN(C)CCCN"
  Category Label: "no (0)"
- Compound: "CC(C)(C)OC(=O)NC(Cc1ccc(O)cc1)C(=O)NC(CCCCN)C(=O)NC(Cc1ccc(O)cc1)C(=O)NC(CCCCN)C(=O)ON1C(=O)CCC1=O (centres undefined) (Boc-YKYK-OSu; configuration not given here)"
  Category Label: "no (0)"
- Compound: "Cc1ccc2nc(-c3ccc(N)c(Br)c3)sc2c1"
  Category Label: "no (0)"
- Compound: "Cc1cc(NC(=O)NC(=O)c2ccccc2NC(=O)CN)ccc1Oc1ncc(Br)cn1"
  Category Label: "yes (1)"
- Compound: "O=C1C(Cl)N(c2c(Cl)cccc2Cl)C1c1c[nH]c2ccccc12 (centres undefined)"
  Category Label: "no (0)"
- Compound: "CNc1nc2n(CCO)c(-c3ccccc3)c(-c3ccccc3)nc-2c(=O)n1"
  Category Label: "no (0)"
- Compound: "CCOC(=O)C(C(=O)OCC)=C1C=C(c2ccccc2)c2ccccc21"
  Category Label: "no (0)"
